measurementTarget: HIV-1 protease (Human immunodeficiency virus type 1 group M subtype B, UniProt P03367, C567A/C595A/L533I/L563I/Q507K)
Construct: Double-stranded, linear DNA encoding HIV-1 protease; 8xHis (self-cleavable) (N, cleaved yes)
protocolSummary: biochemical

- compound: "CC(C)CN(C[C@@H](O)[C@H](Cc1ccccc1)NC(=O)O[C@H]1CCOC1)S(=O)(=O)c1ccc(B(O)O)cc1 [B-Amprenavir (6)]"
  readoutUnit: "pM"
  Ki: 2.1

Cited source: patent US9738664B2
